Hey, just so you know, these numbers are from patent US20030068675.

Target: T1, ZFP SBS#1412 (synthetic)
T1 chain: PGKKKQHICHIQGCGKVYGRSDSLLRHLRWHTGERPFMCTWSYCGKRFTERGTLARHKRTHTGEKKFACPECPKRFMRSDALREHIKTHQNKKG
Test: EMSA
Details: tags: MBP fusion
property-label: Kd (nM)
Provide only the numeric value, understood in nM.

Task: Please indicate Kd recorded for CTGGCCGTG (dsDNA) DNA 1: CTGGCCGTG DNA 2: CACGGCCAG
Result: 0.172
